These measurements were taken from patent US20230235078A1.

Molecular target: T1, Human DDR1 extracellular domain (ECD) protein (human, UniProt Q08345 21-417)
T1 construct: it is treated here as the same molecule; also called recombinant human DDR1 ECD; huDDR1 ECD; not shown: 6xHIS-tag
T1 sequence (Q08345 21-417): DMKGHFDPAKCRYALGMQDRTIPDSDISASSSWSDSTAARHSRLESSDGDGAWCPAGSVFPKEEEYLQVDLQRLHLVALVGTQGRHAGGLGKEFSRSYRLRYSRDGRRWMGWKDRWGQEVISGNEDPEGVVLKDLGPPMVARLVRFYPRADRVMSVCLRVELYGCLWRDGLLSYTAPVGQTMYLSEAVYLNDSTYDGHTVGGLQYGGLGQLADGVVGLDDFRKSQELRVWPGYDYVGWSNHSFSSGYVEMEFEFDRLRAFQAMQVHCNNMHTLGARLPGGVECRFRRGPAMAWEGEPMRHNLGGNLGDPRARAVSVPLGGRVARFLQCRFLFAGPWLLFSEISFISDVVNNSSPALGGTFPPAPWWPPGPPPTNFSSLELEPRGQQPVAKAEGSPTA
Assay: ELISA on DDR1, antibody at 10 and 1 µg/ml

| Binder | binding result |
| --- | --- |
| DDR1-12 (antibody, V domains shown, also called DDR1-12K/DDR1-12H) VH: QSLEESGGRLVTPGTPLTLTCTVSGIDLSNTWMNWVRQAPGKGLEWIGVITDSGTTYYANWAKGRFTISRTSTTVDLKMPSLTTEDTATYFCGRDPGDITSGTNDLWGPGTLVTISS VL: ELVLTQTPASVSEPVGGTVTIKCQASQTIYSNLAWYQQKPGQRPKLLIYQASKLASGVPSRFKGSGSGTEYTLTISDLECADAATYYCQSYYGADDYTFGGGTEVVVK | binds |
| DDR1-22 (antibody, V domains shown, Rabbit variable domains; Detected with anti-rabbit HRP antibody in the DDR2 ELISA; also called DDR1-22K/DDR1-22H) VH: QSVKESGGRLVTPGGSLTLTCTVSGFSLSDYAMIWVRQAPGKGLEYIGIINNGDIYYATWAKGRFTISETSSTTMGLNIISPTTEDTATYFCARPGYRTGIWLWGPGTLVTISS VL: ELVLTQTPSPVSAAVGGTVTINCQSSKNIYNNNALSWFQQKPGQPPKLLIYGASTLASGVPSRFKGSGSGTQFTLTISDVQCDDAATYYCAADYSDISDNNFGGGTEVVVK | binds |
